Experiment: Mouse liver microsomal stability of compound in microsomal protein, PBS buffer pH 7.4, NADPH, glucose-6-phosphate and glucose-6-phosphate dehydrogenase media. Aliquotes were taken at 5 time points and after stopping the reaction, supernatants were analyzed using HPLC coupled with a tandem mass spectrometer. The elimination constant, half-life, and intrinsic clearance are determined as results using linear regression analysis. Also: time not given here.
Type: ADME, microsomes, Microsome
Conditions: microsomes
reported_endpoint: Remaining (%)
Express it in %; write the number only.

# example entries with known answers
O=C1Cc2c(cc(F)cc2C(=O)Nc2ccc3c(c2)CNC3)N1: 87.64
COCCNC(=O)[C@H](Nc1ccc2c(c1)CNC2)c1cc(Cl)cc(C2CC2)c1: 84.686
O=C(Nc1cc2c(c(C3=CCOCC3)c1)CNC2)c1cc(F)cc2[nH]ncc12: 8.587
NCc1cccc(NC(=O)C[C@H](NC(=O)OCc2ccccc2)c2ccc(OCc3ccccc3)c(Br)c2)c1: 98.216
CN(c1ccc2c(c1)CNC2)[C@H](C(=O)NCC(F)F)c1cc(Cl)cc(C2CC2)c1: 80.041
N#Cc1cccc(-c2nc3c(C(=O)Nc4ccc5c(c4)CNC5)cc(F)cc3[nH]2)c1: 68.981

# next compound below
input: What value of measured Remaining is listed for O=C(NCC(F)F)[C@H](Nc1ccc2c(c1)CNC2)c1cc(Br)cc2nc[nH]c12 ?
output: 93.302

* * *

Experiment: Human liver microsomal stability of compound in microsomal protein, PBS buffer pH 7.4, NADPH, glucose-6-phosphate and glucose-6-phosphate dehydrogenase media. Aliquotes were taken at 5 time points and after stopping the reaction, supernatants were analyzed using HPLC coupled with a tandem mass spectrometer. The elimination constant, half-life, and intrinsic clearance are determined as results using linear regression analysis.
Assay type: ADME, microsomes, Microsome
Conditions: microsomes
reported_endpoint: Remaining (%)
Write the answer as a number in %, unit excluded.

input: Which Remaining reading was recorded for the compound CNC(=O)[C@H](Nc1ccc2c(c1)CNC2)c1cc(Cl)cc(C2CC2)c1 ?
output: 90.859

input: Entry Cc1ccc(NC(=O)c2cc(Cl)cc(NC(=O)OCc3ccccc3)c2)cc1CN has what Remaining?
output: 88.403

input: # input compound: O=C(Nc1cc(Cl)cc(C(=O)Nc2cccc(C3CCNCC3)c2)c1)OCc1ccccc1 ; wanted: its Remaining
output: 91.016

input: Suppose we examine the compound O=C1Cc2c(cccc2C(=O)Nc2ccc3c(c2)CNC3)N1 ; what Remaining value has been reported?
output: 90.707

input: Consider the compound O=C(Nc1ccc2c(c1)CNC2)c1cc(F)cc2[nH]c(-c3ccc(F)cc3)nc12 and give its measured Remaining.
output: 90

Where do the numbers come from? From ChEMBL document CHEMBL5665440.
